B1: Caulobacter ParB omega fusion; a variant is named by its letters at X, in order, B8GW30 (parent)
chain: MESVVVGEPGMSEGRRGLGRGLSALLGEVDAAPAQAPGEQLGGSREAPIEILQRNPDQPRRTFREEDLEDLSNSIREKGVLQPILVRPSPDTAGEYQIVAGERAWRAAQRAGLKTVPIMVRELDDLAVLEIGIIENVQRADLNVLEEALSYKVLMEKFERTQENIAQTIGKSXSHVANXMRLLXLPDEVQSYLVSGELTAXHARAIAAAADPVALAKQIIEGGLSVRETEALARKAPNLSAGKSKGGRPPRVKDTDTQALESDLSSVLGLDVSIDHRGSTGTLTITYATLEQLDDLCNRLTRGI

- Variants of: B1
- ASSAY_SUMMARY: one-hybrid fitness for binding NBS DNA (the Noc-binding site; scaled: cognate 1, non-cognate 0); higher = stronger binding
- ASSAY_SETUP: with NBS DNA site
The full ranking holds about 81,000 sequences; the median of “one-hybrid fitness for binding NBS DNA” is about -0.1, and the highest 2% start at about 0.36. The sample as a whole holds a higher share of the highest values than the screen did.
MEASURE: one-hybrid fitness for binding NBS DNA

Dear colleague, please send me the reported one-hybrid fitness for binding NBS DNA for QQKE when you can. 0.335

// Input: TLQF . Output its one-hybrid fitness for binding NBS DNA only. ≤ 0.2

Provide one value: measured one-hybrid fitness for binding NBS DNA of QTFS 0.391

Provide measured one-hybrid fitness for binding NBS DNA value, entry: QHDY ≤ 0.2

Return reported one-hybrid fitness for binding NBS DNA. Input variant: RARS 0.564

Supply recorded one-hybrid fitness for binding NBS DNA for KISR here. ≤ 0.2

Identify the reported one-hybrid fitness for binding NBS DNA for the following entry. QHKN 0.427

Give a short answer stating reported one-hybrid fitness for binding NBS DNA for PFKM . ≤ 0.2

Tell me measured one-hybrid fitness for binding NBS DNA for RRHF please. 0.207

Consider the variant QHKH and give its recorded one-hybrid fitness for binding NBS DNA. 0.546

Dear colleague, please send me the reported one-hybrid fitness for binding NBS DNA for QCQG when you can. ≤ 0.2

Give me measured one-hybrid fitness for binding NBS DNA, please, for this variant: NCLS ≤ 0.2

Using known records, supply one-hybrid fitness for binding NBS DNA for MPSK ≤ 0.2

Tell us which one-hybrid fitness for binding NBS DNA value is on record for TLWY ≤ 0.2

Identify the reported one-hybrid fitness for binding NBS DNA for the following entry. KCYS ≤ 0.2

Please list one-hybrid fitness for binding NBS DNA recorded for the variant DGSR ≤ 0.2

Check the records and state one-hybrid fitness for binding NBS DNA for MMSM ≤ 0.2

Give one-hybrid fitness for binding NBS DNA for ANSS ≤ 0.2

Give reported one-hybrid fitness for binding NBS DNA value for QHKG 0.345

Return value of one-hybrid fitness for binding NBS DNA for input QYAN , no commentary. ≤ 0.2

Supply measured one-hybrid fitness for binding NBS DNA of QCRG in your reply. 0.451

Return one-hybrid fitness for binding NBS DNA (reported value) for this variant: QHRY 0.488

Determine its reported one-hybrid fitness for binding NBS DNA: QYFS ≤ 0.2

Please supply the value of reported one-hybrid fitness for binding NBS DNA for the item QRLR 0.945

Give recorded one-hybrid fitness for binding NBS DNA. QSQG ≤ 0.2

Return reported one-hybrid fitness for binding NBS DNA. Input variant: PYEG ≤ 0.2

Hello, please tell me recorded one-hybrid fitness for binding NBS DNA for this one: QRLQ 0.327

Look up one-hybrid fitness for binding NBS DNA of QYTN and report it. ≤ 0.2

Complete the entry with one-hybrid fitness for binding NBS DNA for LSYG ≤ 0.2

Read the entry RRWG and write its reported one-hybrid fitness for binding NBS DNA. 0.216

Check the records and state one-hybrid fitness for binding NBS DNA for TSFV ≤ 0.2

# return recorded one-hybrid fitness for binding NBS DNA for entry QRAG 0.37

Look up and report measured one-hybrid fitness for binding NBS DNA for this entry: QHKD ≤ 0.2

Item DMCG : provide one-hybrid fitness for binding NBS DNA ≤ 0.2

Complete the entry with one-hybrid fitness for binding NBS DNA for QCGG ≤ 0.2

Return reported one-hybrid fitness for binding NBS DNA. Input variant: EMMS ≤ 0.2

Specify one-hybrid fitness for binding NBS DNA for NRGR and stop. ≤ 0.2

Supply measured one-hybrid fitness for binding NBS DNA of QYTT in your reply. 0.401

Supply reported one-hybrid fitness for binding NBS DNA belonging to this variant: RRHR 0.771

Please supply the value of reported one-hybrid fitness for binding NBS DNA for the item QHKP 0.255

Given QHVN , respond with its one-hybrid fitness for binding NBS DNA. ≤ 0.2

Please supply the value of reported one-hybrid fitness for binding NBS DNA for the item RADS ≤ 0.2

// fetch one-hybrid fitness for binding NBS DNA given entry CQKM ≤ 0.2

Name the recorded one-hybrid fitness for binding NBS DNA of the variant listed here: QYTM ≤ 0.2

Find the measured one-hybrid fitness for binding NBS DNA of CFTM and report it. ≤ 0.2

Using known records, supply one-hybrid fitness for binding NBS DNA for QTAM 0.233

Give me measured one-hybrid fitness for binding NBS DNA, please, for this variant: QSRY 0.505

Provide only the value of recorded one-hybrid fitness for binding NBS DNA for WSMT ≤ 0.2

Name the recorded one-hybrid fitness for binding NBS DNA of the variant listed here: RARN ≤ 0.2

Given the variant PPRN , write its reported one-hybrid fitness for binding NBS DNA. ≤ 0.2

In one line, give reported one-hybrid fitness for binding NBS DNA of the entry QCAG . ≤ 0.2

Give the reported value of one-hybrid fitness for binding NBS DNA for this record: RARH 0.306

Report one-hybrid fitness for binding NBS DNA for HDNF ≤ 0.2

Consider the variant FPNL . State its measured one-hybrid fitness for binding NBS DNA. ≤ 0.2

Give the reported value of one-hybrid fitness for binding NBS DNA for this record: NTSG ≤ 0.2

Name the recorded one-hybrid fitness for binding NBS DNA of the item QYTY in your answer. ≤ 0.2

Using known records, supply one-hybrid fitness for binding NBS DNA for QTMY 0.232

For QTFK , write its one-hybrid fitness for binding NBS DNA. ≤ 0.2

Please give measured one-hybrid fitness for binding NBS DNA of the following entry: SHCW ≤ 0.2

Identify measured one-hybrid fitness for binding NBS DNA corresponding to EAFS ≤ 0.2

Specify measured one-hybrid fitness for binding NBS DNA for QCIE . ≤ 0.2

Please report the measured one-hybrid fitness for binding NBS DNA for ERAV ≤ 0.2

Return one-hybrid fitness for binding NBS DNA for the following variant: QSYY ≤ 0.2

Look up and report measured one-hybrid fitness for binding NBS DNA for this entry: DRGR ≤ 0.2

Fill in reported one-hybrid fitness for binding NBS DNA for this entry: RRHQ 0.293

Name the recorded one-hybrid fitness for binding NBS DNA of the item RRWR in your answer. 0.732
